experiment: Solubility assessment in milk vehicles and 10 mM sodium phosphate buffer pH 6.8, HPLC analysis; type: physicochemical; conditions: bovine, milk vehicles (all tested media except the pH 6.8 buffer), plasma or biological fluid, thermodynamic from solid; all tested media with the exception of the pH 6.8 aqueous buffer; read-out: Solubility in the tested media
Parameter: solubility at 60 min

Would you kindly share the measured solubility at 60 min for CC(=O)OCC1=C(C(=O)O)N2C(=O)[C@@H](NC(=O)CSc3ccncc3)[C@H]2SC1 [Cephapirin Sodium, Cephapirin sodium] ? > 350 mg/mL

----------
Experiment: Solubility assessment in milk vehicles and 10 mM sodium phosphate buffer pH 6.8, HPLC analysis
Assay type: physicochemical
Conditions: reconstituted whole milk powder (Nestle), plasma or biological fluid, thermodynamic from solid; 38°C; expressed as free form of cephapirin; read-out: Solubility, Reconstituted Whole Milk Powder (Nestle)
Procedure: Solubility assessment was performed in all milk vehicles listed above. A 10 mM sodium phosphate buffer pH 6.8 was also included as a control. For each solubility sample, an excess amount of drug powder was weighed in a 20-mL glass vial. A suitable volume of the vehicle, pre-equilibrated to the desired temperature, was added to the drug powder. The samples were stirred for 60 minutes at 38°C or 20°–25°C [room temperature (RT)] prior to processing. […]
Parameter: solubility at 60 min

Would you kindly share the measured solubility at 60 min for CC(=O)OCC1=C(C(=O)O)N2C(=O)[C@@H](NC(=O)CSc3ccncc3)[C@H]2SC1 [Cephapirin Sodium, Cephapirin sodium] ? > 500 mg/mL

----------
experiment: Solubility assessment in milk vehicles and 10 mM sodium phosphate buffer pH 6.8, HPLC analysis; assay type: physicochemical; details: 10 mM sodium phosphate buffer, pH 6.8, aqueous buffer, thermodynamic from solid; room temperature; expressed as free form of cephapirin; read-out: Solubility, pH 6.8 buffer (control)
Parameter: solubility at 60 min

Would you kindly share the measured solubility at 60 min for CC(=O)OCC1=C(C(=O)O)N2C(=O)[C@@H](NC(=O)CSc3ccncc3)[C@H]2SC1 [Cephapirin Sodium, Cephapirin sodium] ? > 200 mg/mL

----------
assay: Solubility assessment in milk vehicles and 10 mM sodium phosphate buffer pH 6.8, HPLC analysis; format: physicochemical; settings: bovine, raw milk, plasma or biological fluid, thermodynamic from solid; room temperature; expressed as free form of cephapirin; read-out: Solubility, Raw Milk
Parameter: solubility at 60 min

Would you kindly share the measured solubility at 60 min for CC(=O)OCC1=C(C(=O)O)N2C(=O)[C@@H](NC(=O)CSc3ccncc3)[C@H]2SC1 [Cephapirin Sodium, Cephapirin sodium] ? > 350 mg/mL

----------
experiment: Solubility assessment in milk vehicles and 10 mM sodium phosphate buffer pH 6.8, HPLC analysis; format: physicochemical; settings: bovine, raw milk, plasma or biological fluid, thermodynamic from solid; 38°C; expressed as free form of cephapirin; read-out: Solubility, Raw Milk
Parameter: solubility at 60 min

Would you kindly share the measured solubility at 60 min for CC(=O)OCC1=C(C(=O)O)N2C(=O)[C@@H](NC(=O)CSc3ccncc3)[C@H]2SC1 [Cephapirin Sodium, Cephapirin sodium] ? > 500 mg/mL

----------
experiment: Solubility assessment in milk vehicles and 10 mM sodium phosphate buffer pH 6.8, HPLC analysis; format: physicochemical; conditions: bovine, whole milk, plasma or biological fluid, thermodynamic from solid; room temperature; expressed as free form of cephapirin; read-out: Solubility, Whole Milk
Parameter: solubility at 60 min

Would you kindly share the measured solubility at 60 min for CC(=O)OCC1=C(C(=O)O)N2C(=O)[C@@H](NC(=O)CSc3ccncc3)[C@H]2SC1 [Cephapirin Sodium, Cephapirin sodium] ? > 350 mg/mL

----------
assay: Solubility assessment in milk vehicles and 10 mM sodium phosphate buffer pH 6.8, HPLC analysis; assay type: physicochemical; conditions: bovine, 38 °C, plasma or biological fluid, thermodynamic from solid; reconstituted and raw milk; read-out: Solubility in reconstituted and raw milk
Parameter: solubility at 60 min

Would you kindly share the measured solubility at 60 min for CC(=O)OCC1=C(C(=O)O)N2C(=O)[C@@H](NC(=O)CSc3ccncc3)[C@H]2SC1 [Cephapirin Sodium, Cephapirin sodium] ? > 500 mg/mL
